meta.source: the supplement of paper PMC11451515

- System: P12-Ichikawa
- assay_method_text: cell viability relative to DMSO control; higher = less cytotoxic
- test_conditions: RPMI 5 mM glucose + 10% FBS; 48 h; 0.000781 µM
recorded_metric: cell viability (%)
Respond with the bare value in %.

Prompt: Find the measured cell viability of Oc1ccc([C@@H]2Oc3ccc(O)cc3[C@@H]3CCC[C@@H]32)cc1 and report it.
Completion: 88.5

Prompt: Answer with the recorded cell viability of CC[C@H]1CN2CCc3cc(OC)c(OC)cc3[C@@H]2C[C@@H]1C[C@H]1NCCc2cc(OC)c(OC)cc21 only.
Completion: 96.8

Prompt: Name the recorded cell viability of the compound listed here: CC(C)(O)C(=O)Nc1ccc([N+](=O)[O-])c(C(F)(F)F)c1
Completion: 95.7

Prompt: Identify measured cell viability associated with CCCCCN(CCC12CC3CC(CC(C3)C1)C2)C(=O)NCCCc1ccncc1
Completion: 101

Prompt: For the compound CN(C)CCOc1ccc(/C(=C(/CCCl)c2ccccc2)c2ccccc2)cc1 , give its measured cell viability value.
Completion: 108

Prompt: Output cell viability of O=C1N\C=N/C2=C1C=N[NH]2
Completion: 83.9

Prompt: Return reported cell viability. Input compound: Oc1ccc2ccccc2c1SSc1c(O)ccc2ccccc12
Completion: 105

---

cell viability values for the compounds below.
- System: P12-Ichikawa
- assay_method_text: cell viability relative to DMSO control; higher = less cytotoxic
- test_conditions: RPMI 5 mM glucose + 10% FBS; 48 h; 46.1 µM
Numeric answer only, unit % assumed.

Oc1ccc(-c2ccc(-c3cc(Nc4cccc(CNC5CC5)c4)[nH]n3)cc2)c(O)c1 :: 23.4

Here is another compound to look at.
Prompt: Answer with reported cell viability of CC(C)(C)OC(=O)Nc1ccc(-c2cc(C(=O)NCCCCCCC(=O)NO)no2)cc1
Completion: 3.16

---

- Tested on: SEM cells
- assay_method_text: AUC of viability dose-response curve (% viability x log10 dose units); higher = less sensitive
- test_conditions: RPMI 5 mM glucose + 10% dialyzed FBS; 48 h
recorded_metric: AUC of viability dose-response curve
Give a plain numeric answer without units written out.

Illustrative cases are given below, each with its answer.
OCCN(CCO)c1nc(N2CCCCC2)c2nc(N(CCO)CCO)nc(N3CCCCC3)c2n1 :: 461
CC(C)(C)C1=CC(=C(NC(=O)C/2=C/NC3=C(C=CC=C3)C2=O)C=C1O)C(C)(C)C :: 470

Prompt: Input FC(F)(F)c1ccc(CNc2ccc(Cc3c[nH]c4ncc(Cl)cc34)cn2)cn1 , output reported AUC of viability dose-response curve.
Completion: 314

Prompt: Return AUC of viability dose-response curve for the following compound: C[C@]\12CCC(=O)\C=C1[C@@H]3C[C@@H]3[C@@H]4[C@@H]2CC[C@@]5(C)[C@H]4[C@@H]6C[C@@H]6[C@@]57CCC(=O)O7
Completion: 468

Prompt: Tell me its AUC of viability dose-response curve given CC1=C(/C=C/C(C)=C/C=C/C(C)=C/C(=O)O)C(C)(C)CCC1 as the entry.
Completion: 450

Prompt: Give the measured AUC of viability dose-response curve for CC(S)C(=O)NCC(=O)O (centres undefined)
Completion: 417

Prompt: # return recorded AUC of viability dose-response curve for input NCCc1c[nH]cn1
Completion: 432

Prompt: Find the measured AUC of viability dose-response curve of NC(=O)c1noc([C@H](CCCC2CCCCC2)CC(=O)NO)n1 and report it.
Completion: 429

Prompt: Answer with reported AUC of viability dose-response curve of CCOC(=O)N[C@@H]1CC[C@@H]2[C@@H](C1)C[C@H]1C(=O)O[C@H](C)[C@H]1[C@H]2/C=C/c1ccc(-c2cccc(F)c2)cn1
Completion: 461

---

- Test system: P12-Ichikawa
- assay_method_text: cell viability relative to DMSO control; higher = less cytotoxic
- test_conditions: RPMI 5 mM glucose + 10% dialyzed FBS; 48 h; 0.00702 µM
recorded_metric: cell viability
Give the value; after it, write the unit.

The following compounds have reported results that may help.
CCCCc1nc2cc(/C=C/C(=O)NO)ccc2n1CCN(CC)CC :: 93.5%
NCCc1ccc(O)c(O)c1 :: 123%
N#C/C(=C1/Nc2ccccc2S1)c1ccnc(OCc2ccc(CN3CCOCC3)cc2)n1 :: 106%
Cc1cnc(Nc2ccc(N3CCN(C)CC3)cc2)nc1Nc1cccc([S+](=O)([O-])NC(C)(C)C)c1 :: 114%
Nc1nc(N)c(N=O)c(OCC2CCCCC2)n1 :: 85%
NC[C@H]1O[C@H](O[C@H]2[C@H](O)[C@@H](O[C@H]3O[C@H](CO)[C@@H](O)[C@H](N)[C@H]3O)[C@H](N)C[C@@H]2N)[C@H](N)C[C@@H]1O :: 117%
CO[C@@H]1[C@@H](O)[C@H](O)[C@@H](n2c3c(Cl)cccc3c3c4c(c5c6cccc(Cl)c6[nH]c5c32)C(=O)NC4=O)O[C@H]1CO :: 96.1%

Please turn your attention to the following entry.
Prompt: State its cell viability for this compound: CC(C)[N+]1(C)C2CCC1CC(OC(=O)C(CO)c1ccccc1)C2.O.[Br-] (stereo not drawn)
Completion: 119%

---

- System: SEM cells
- assay_method_text: cell viability relative to DMSO control; higher = less cytotoxic
- test_conditions: RPMI 5 mM glucose + 10% dialyzed FBS; 48 h; 0.00234 µM
recorded_metric: cell viability (%)
Dear colleague, please return just the value in %, with no unit written.

# count of solved cases: 3
NCCc1ccc(O)c(O)c1 :: 124
C=CC(=O)Nc1ccc2ncnc(Nc3ccc(OCc4cccc(F)c4)c(Cl)c3)c2c1 :: 87.5
O=C(NCC1CCOCC1)c1cnc(Nc2ccc(Cl)cc2Cl)nc1C(F)(F)F :: 97.8

Field: next molecule
Prompt: Lab note: SEM cells assay, enter cell viability for CCC(C1CCC(C)C(O1)C(C)C(O)C(C)C(=O)C(CC)C2OC\3(O[C@]4(CC[C@@](C)(O4)C5CC[C@@](O)(CC)C(C)O5)C(O)\C=C3)C(C)CC2C)C([O-])=O (some centres undefined) here
Completion: 15

---

- System: SEM cells
- assay_method_text: cell viability relative to DMSO control; higher = less cytotoxic
- test_conditions: RPMI 5 mM glucose + 10% dialyzed FBS; 48 h; 5.12 µM
recorded_metric: cell viability (%)
# number only, unit % dropped from output

Answered cases to consult:
CC(C)(C)C1=CC(=C(NC(=O)C/2=C/NC3=C(C=CC=C3)C2=O)C=C1O)C(C)(C)C :: 110
CN(C)[C@@H](CCOc1cccc2ccccc12)c1ccccc1 :: 101
O=C(NCc1ccccc1)c1csc(Nc2ccncn2)n1 :: 17.4

Prompt: Give the measured cell viability for CC(C)(C)OC(=O)Nc1ccc(-c2cc(C(=O)NCCCCCCC(=O)NO)no2)cc1
Completion: 20.1

Prompt: State its cell viability for this compound: CC(C)c1c(C(=O)Nc2ccccc2)c(-c2ccccc2)c(-c2ccc(F)cc2)n1CC[C@@H](O)C[C@@H](O)CC(=O)[O-]
Completion: 93.3

Prompt: Check the records and state cell viability for CC(C)(Sc1ccc(CCN(CCCCC2CCCCC2)C(=O)NC2CCCCC2)cc1)C(=O)O
Completion: 101

Prompt: // Input: OC[C@H]1OC(OC2=CC3=C(C(=C2)O)C(=O)\C(=C/O3)C4=CC=C(O)C=C4)[C@H](O)[C@@H](O)[C@@H]1O (stereo partly drawn) . Output its cell viability only.
Completion: 90.3

Prompt: Kindly indicate its recorded cell viability. Item: CN1CCC(CC1)=C2C3=C(C=CC=C3)\C=C/C4=C2C=CC=C4
Completion: 119

---

- Tested on: NOMO1
- assay_method_text: cell viability relative to DMSO control; higher = less cytotoxic
- test_conditions: HPLM + 10% dialyzed FBS; 48 h; 0.0211 µM
recorded_metric: cell viability (%)
Report the value in % with no unit label.

Example cases with answers are listed next.
CC(C)Cn1cnc2c(N)nc3ccccc3c21 :: 116
Nc1nc(N)c(N=O)c(OCC2CCCCC2)n1 :: 116
O=C(O)Cc1cccc(OCCCN(Cc2cccc(C(F)(F)F)c2Cl)CC(c2ccccc2)c2ccccc2)c1 :: 110
NNc1nncc2ccccc12 :: 139
Nc1ccc([S+](=O)([O-])Nc2ncccn2)cc1 :: 126

# ---- query compound ----
Prompt: Annotate the compound N=C(N)NC(=N)N1CCOCC1 with its measured cell viability.
Completion: 103

---

- Tested on: SEM cells
- assay_method_text: cell viability relative to DMSO control; higher = less cytotoxic
- test_conditions: RPMI 5 mM glucose + 10% dialyzed FBS; 48 h; 0.00234 µM
recorded_metric: cell viability (%)
# unit: % | format: bare number

Observe how each entry below is paired with its result.
CC[C@H]1CN2CCc3cc(OC)c(OC)cc3[C@@H]2C[C@@H]1C[C@H]1NCCc2cc(OC)c(OC)cc21 :: 99.2
COC(=O)C/1=C(C)/N/C(=C(\C1C2=CC(=CC=C2)[N+]([O-])=O)C(=O)OCCCN3CCC(CC3)(C4=CC=CC=C4)C5=CC=CC=C5)C (centres undefined) :: 92.3
Oc1ccc([C@@H]2Oc3ccc(O)cc3[C@@H]3CCC[C@@H]32)cc1 :: 94.9

As a next step, examine the compound that follows.
Prompt: Give the observed cell viability of O=C1CCCC(=O)C1C(=O)c1ccc(C(F)(F)F)cc1[N+](=O)[O-] for SEM cells.
Completion: 104
